Record form. Attribute: EC50 vpac2 (Molar), cell-based cAMP assay. Fill in for each entry.
Molecular target: T1, VPAC2 receptor (UniProt P41587 24-438, limits assumed)
T1 sequence (looked up): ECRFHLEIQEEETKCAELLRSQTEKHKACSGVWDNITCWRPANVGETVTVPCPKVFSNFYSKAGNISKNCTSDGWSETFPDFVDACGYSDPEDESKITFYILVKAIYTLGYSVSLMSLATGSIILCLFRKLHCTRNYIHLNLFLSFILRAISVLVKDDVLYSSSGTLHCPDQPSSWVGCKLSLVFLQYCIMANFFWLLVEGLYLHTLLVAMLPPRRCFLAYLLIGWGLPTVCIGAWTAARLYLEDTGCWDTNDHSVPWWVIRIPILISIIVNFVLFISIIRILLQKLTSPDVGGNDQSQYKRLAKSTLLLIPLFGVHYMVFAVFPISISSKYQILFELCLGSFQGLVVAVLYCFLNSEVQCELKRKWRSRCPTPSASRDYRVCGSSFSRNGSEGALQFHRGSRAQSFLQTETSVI
Test: cell-based or functional assay
Primed or numbered codes have the meaning given here. Where no end group is shown, it is not given here. [ ]: non-standard residue; d: D form. APC″ = 3-aminopyrrolidine-4-carboxylic acid (cyclic β-amino acid); ACPC″ = 2-aminocyclopentanecarboxylic acid (x in the sequences); APC = 3-aminopyrrolidine-4-carboxylic acid; ACPC = 2-aminocyclopentanecarboxylic acid; β3hY = N[C@H](CC(=O)O)Cc1ccc(O)cc1; β3hQ = NC(=O)CC[C@H](N)CC(=O)O; β3hN = NC(=O)C[C@H](N)CC(=O)O; β3hK = NCCCC[C@H](N)CC(=O)O; β3hV = CC(C)[C@H](N)CC(=O)O; βAla = NCCC(=O)O
Numbers only, in nM.

Parameters: items (list). Returns: EC50 vpac2 (Molar), cell-based cAMP assay for each item.
1. Ac-H[ACPC″]DA[ACPC″]FTE[β3hN][β3hY]TKLRKQLAA[APC″]KY[ACPC″]NDL[β3hK]KG[βAla]T (not fully specified (C-terminus); printed as Ac-HxDAxFTEnyTKLRKQLAAzKYxNDLkKGgT) [LBT-V216]
2. Ac-H[ACPC]DA[β3hV]FTENYTKLRK[β3hQ]LAA[APC]KY[ACPC]NDL[β3hK]KG[βAla]T (not fully specified (C-terminus); printed as Ac-HxDAvFTENYTKLRKqLAAzKYxNDLkKGgT) [LBT-V212]

1. 95.6
2. 3.52

Measured values drawn from patent US20180193423A1 for this set.
